Species on record: Homo sapiens
PROTOCOL_SUMMARY: Binding affinity to human Hum21 [5'-G3(T2AG3)3-3'] G-quadruplex DNA assessed as change in melting temperature in 10 mM pH 7.4 Tris-Hcl buffer containing 0.1 mM EDTA and 0.1 mM NaCl […] (reference value: 7 to 10 degC)
MEASURE: ΔTm (°C)

CN1CCN(CCCCn2c3ccc(-c4nc5cc(N6CCOCC6)ccc5[nH]4)cc3c3cc(-c4nc5cc(N6CCOCC6)ccc5[nH]4)ccc32)CC1 = 8
CN1CCN(CCCCn2c3ccc(-c4nc5cc(N6CCN(CCO)CC6)ccc5[nH]4)cc3c3cc(-c4nc5cc(N6CCN(CCO)CC6)ccc5[nH]4)ccc32)CC1 = 15
CN1CCN(CCCCn2c3ccc(-c4nc5cc(-c6nc7cc(N8CCN(C)CC8)ccc7[nH]6)ccc5[nH]4)cc3c3cc(-c4nc5cc(-c6nc7cc(N8CCN(C)CC8)ccc7[nH]6)ccc5[nH]4)ccc32)CC1 = 10
CN1CCN(CCCCn2c3ccc(-c4nc5cc(N6CCN(C)CC6)ccc5[nH]4)cc3c3cc(-c4nc5cc(N6CCN(C)CC6)ccc5[nH]4)ccc32)CC1 = 12
